Recorded cell viability, one value per entry.
# Test system: P12-Ichikawa
# method summary: cell viability relative to DMSO control; higher = less cytotoxic
# settings: HPLM + 10% dialyzed FBS; 48 h; 1.71 µM
Reply numerically in %, unit not repeated.

Input line: Record CCCCN(CCCC)CCC(O)c1cc2c(Cl)cc(Cl)cc2c2cc(C(F)(F)F)ccc12 (stereo unspecified) : what is its cell viability with P12-Ichikawa?
Output line: 131

###

# System: SEM cells
# method summary: cell viability relative to DMSO control; higher = less cytotoxic
# settings: HPLM + 10% dialyzed FBS; 48 h; 5.12 µM
metric name: cell viability (%)
Reply numerically in %, unit not repeated.

Observe how each entry below is paired with its result.
CCC1=C[C@@H]2CN(C1)Cc1c([nH]c3ccccc13)[C@@](C(=O)OC)(c1cc3c(cc1OC)N(C)[C@H]1[C@@](O)(C(=O)OC)[C@H](OC(C)=O)[C@]4(CC)C=CCN5CC[C@]31[C@@H]54)C2    23.6
CC(C)(C)OC(=O)CN(Cc1ccc(Cl)cc1)Cc1ccc([N+](=O)[O-])s1    92.8
CSC1=CC(=CC=C1)NC2=NC3=C(C=N2)/C=C(C(=O)N3C)/C4=C(Cl)C=CC=C4Cl    88.9

Input line: What value of cell viability has been recorded for this entry: O=C(NC1CCNCC1)c1n[nH]cc1NC(=O)c1c(Cl)cccc1Cl
Output line: 7.23

Input line: What value of cell viability has been recorded for this entry: CCCCN(CCCC)CCC(O)c1cc2c(Cl)cc(Cl)cc2c2cc(C(F)(F)F)ccc12 (centres undefined)
Output line: 117

Input line: What value of cell viability has been recorded for this entry: COc1cc2nccc(Oc3ccc(NC(=O)Nc4cc(C)on4)c(Cl)c3)c2cc1OC
Output line: 64.1
